# subject_of_test: Her3 (Homo sapiens)
# protocol_description: LanthaScreen Eu kinase binding assay
# Set-up: purchased Life Technologies
# conditions_used: read-out: Binding Affinities (IC50)
# Sequence (P21860 20-1342, species assumed): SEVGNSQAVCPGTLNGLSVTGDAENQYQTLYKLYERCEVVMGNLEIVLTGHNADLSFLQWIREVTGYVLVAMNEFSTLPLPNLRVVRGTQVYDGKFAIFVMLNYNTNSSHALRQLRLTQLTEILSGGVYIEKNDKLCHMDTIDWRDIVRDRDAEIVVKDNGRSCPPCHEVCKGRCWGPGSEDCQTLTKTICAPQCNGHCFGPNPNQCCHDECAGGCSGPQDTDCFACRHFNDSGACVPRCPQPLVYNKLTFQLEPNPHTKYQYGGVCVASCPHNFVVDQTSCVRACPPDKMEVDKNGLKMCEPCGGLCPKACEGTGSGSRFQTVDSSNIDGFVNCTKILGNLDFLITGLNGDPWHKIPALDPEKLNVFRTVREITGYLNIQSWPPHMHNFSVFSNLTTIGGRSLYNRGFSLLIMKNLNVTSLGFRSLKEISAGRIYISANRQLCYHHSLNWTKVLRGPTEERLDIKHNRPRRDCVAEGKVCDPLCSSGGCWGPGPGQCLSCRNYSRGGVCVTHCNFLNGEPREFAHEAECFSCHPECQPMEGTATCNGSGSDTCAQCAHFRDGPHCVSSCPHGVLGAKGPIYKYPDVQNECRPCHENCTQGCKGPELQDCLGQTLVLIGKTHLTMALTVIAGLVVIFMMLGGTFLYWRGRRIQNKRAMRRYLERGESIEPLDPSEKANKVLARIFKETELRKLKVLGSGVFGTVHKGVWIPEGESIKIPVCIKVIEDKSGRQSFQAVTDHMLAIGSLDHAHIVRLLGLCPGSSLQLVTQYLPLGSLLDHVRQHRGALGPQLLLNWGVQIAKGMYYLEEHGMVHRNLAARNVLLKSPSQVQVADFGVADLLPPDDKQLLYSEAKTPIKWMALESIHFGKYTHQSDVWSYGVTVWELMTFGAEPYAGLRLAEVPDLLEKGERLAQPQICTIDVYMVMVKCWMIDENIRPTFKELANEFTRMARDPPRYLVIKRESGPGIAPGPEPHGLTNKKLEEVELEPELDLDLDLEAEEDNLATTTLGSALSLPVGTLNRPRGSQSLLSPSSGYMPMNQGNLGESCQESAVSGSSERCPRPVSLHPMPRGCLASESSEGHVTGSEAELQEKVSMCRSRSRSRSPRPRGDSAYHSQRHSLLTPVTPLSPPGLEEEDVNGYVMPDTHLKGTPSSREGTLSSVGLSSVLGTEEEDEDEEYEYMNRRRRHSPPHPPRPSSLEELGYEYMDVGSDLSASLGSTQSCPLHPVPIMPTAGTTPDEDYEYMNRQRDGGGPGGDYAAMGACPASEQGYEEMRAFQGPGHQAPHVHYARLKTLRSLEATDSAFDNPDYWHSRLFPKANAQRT
readout_name: IC50

Cc1ncsc1-c1ccc(CNC(=O)[C@@H]2C[C@@H](O)CN2C(=O)[C@@H](NC(=O)CCOCCOCCOCCN2CCC(n3nc(-c4ccc(Oc5ccccc5)c([N+](=O)[O-])c4)c4c(N)ncnc43)CC2)C(C)(C)C)cc1 [Compound PP8] | > 100 nM

Shifting focus to the compound that follows.
Item: Nc1ncnc2c1c(-c1ccc(Oc3ccccc3)c([N+](=O)[O-])c1)nn2C1CCN(CC(=O)NCCOCCOCCOCCNC(=O)COc2cccc3c2C(=O)N(C2CCC(=O)NC2=O)C3=O)CC1 (centres unmarked) [Compound PP6] | IC50: 10 to 100 nM

----------
# System: Ovacar 5
# protocol_description: Anti-proliferation MTS assay, Ovacar 5
# Format: cell-based
# conditions_used: 72 h, Ovacar 5 cells, 3 days, read-out: Cell lines (EC50, μM) Ovacar 5
# Description: Cells are seeded and incubated for 3 d after bifunctional compounds of the application are added. Cell viability is measured via MTS Assay. This assay uses a colorimetric method to determine the number of viable cells based on the bioreduction of MTS by cells to a formazan product that is soluble in cell culture medium and can be detected spectrophotometrically. […] The plates are measured with Perkin Elmer EnVision after reaching an optical density (OD) of 1.0-2.0 at a wavelength of 490 nm. […]
readout_name: EC50

Lab note: molecule C=CC(=O)Nc1cc(-c2nn(C3CCN(CC(=O)N[C@@H](C(=O)N4C[C@@H](O)C[C@@H]4C(=O)NCc4ccc(-c5scnc5C)cc4)C(C)(C)C)CC3)c3ncnc(N)c23)ccc1Oc1ccccc1 [Compound PP2] tested on Ovacar 5; recorded EC50 was 5 to 15 µM

----------
# subject_of_test: Her3 (Homo sapiens, UniProt P21860)
# protocol_description: Her3 protein degradation by Western blot
# Type: cell-based
# Design: endogenous in cells; host or cells: PC9-GR4; Ovacar 8; key: (+): Her3 protein was degraded; (−): Her3 protein was not degraded
# conditions_used: PC9-GR4 or Ovacar 8 cell lines, 2 μM, 4 hour and 8 hour
# Sequence (P21860 20-1342): as the sequence (P21860 20-1342, species assumed) above
readout_name: Her3 Degradation

Solved cases (4 shown):
C=CC(=O)Nc1cc(-c2nn(C3CCN(CC(=O)NCCCOCCOCCOCCCNC(=O)COc4cccc5c4C(=O)N(C4CCC(=O)NC4=O)C5=O)CC3)c3ncnc(N)c23)ccc1Oc1ccccc1 (centres unmarked) | −
C=CC(=O)Nc1cc(-c2nn(C3CCN(CC(=O)N[C@@H](C(=O)N4C[C@@H](O)C[C@@H]4C(=O)NCc4ccc(-c5scnc5C)cc4)C(C)(C)C)CC3)c3ncnc(N)c23)ccc1Oc1ccccc1 | +
C=CC(=O)Nc1cc(-c2nn(C3CCN(CCOCCOCCOCCC(=O)N[C@@H](C(=O)N4C[C@@H](O)C[C@@H]4C(=O)NCc4ccc(-c5scnc5C)cc4)C(C)(C)C)CC3)c3ncnc(N)c23)ccc1Oc1ccccc1 | −
C=CC(=O)Nc1cc(-c2nn(C3CCN(CC(=O)NCCCCNC(=O)COc4cccc5c4C(=O)N(C4CCC(=O)NC4=O)C5=O)CC3)c3ncnc(N)c23)ccc1Oc1ccccc1 (centres unmarked) | +

Shifting focus to the molecule that follows.
Item: C=CC(=O)Nc1cc(-c2nn(C3CCN(CC(=O)NCCCCCCCCNC(=O)COc4cccc5c4C(=O)N(C4CCC(=O)NC4=O)C5=O)CC3)c3ncnc(N)c23)ccc1Oc1ccccc1 (centres unmarked) | Her3 Degradation: +

----------
# subject_of_test: Her3 (Homo sapiens, UniProt P21860)
# protocol_description: Her3 protein degradation by Western blot
# Type: cell-based
# Set-up: endogenous in cells; host or cells: PC9-GR4; Ovacar 8; key: (+): Her3 protein was degraded; (−): Her3 protein was not degraded
# conditions_used: PC9-GR4 or Ovacar 8 cell lines, 2 μM, 4 hour and 8 hour
readout_name: Her3 Degradation

Cc1ncsc1-c1ccc(CNC(=O)[C@@H]2C[C@@H](O)CN2C(=O)[C@@H](NC(=O)CCOCCOCCOCCN2CCC(n3nc(-c4ccc(Oc5ccccc5)c([N+](=O)[O-])c4)c4c(N)ncnc43)CC2)C(C)(C)C)cc1 [Compound PP8] | +
Nc1ncnc2c1c(-c1ccc(Oc3ccccc3)c([N+](=O)[O-])c1)nn2C1CCN(CC(=O)NCCCCNC(=O)COc2cccc3c2C(=O)N(C2CCC(=O)NC2=O)C3=O)CC1 (stereo not drawn) [Compound PP7] | −
Nc1ncnc2c1c(-c1ccc(Oc3ccccc3)c([N+](=O)[O-])c1)nn2C1CCN(CC(=O)NCCOCCOCCOCCNC(=O)COc2cccc3c2C(=O)N(C2CCC(=O)NC2=O)C3=O)CC1 (stereo not drawn) [Compound PP6] | −

These measurements were taken from patent US20200216454A1.
